experimental protocol: small-molecule microarray binders of probe aShh, primary screen, biochemical, biotinylated probe, 635/667 nm fluorescence (AID 1114);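 further: probe is biotin-labelled aShh protein from a stem cell growth factor screen; measures binding of labelled protein to compounds printed on the slide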
applied conditions: higher = more signal
I'd appreciate it if you could label each record using composite z-score and these ranges: L: < -0.2; M: ≥ -0.2 and < -0.007; H: ≥ -0.007

Check out these entries, answers already filled in.
CCOC(=O)CCN1C(=O)[C@H]2[C@H]3[C@H](O)[C@H](O)CC(=NOCC(C)C)[C@H]3CC[C@H]2C1=O :: L
C=CC[C@@H]1C=C[C@H](ON=C[C@@H](C)[C@H](OCc2ccccc2)C(C)C)[C@@H](CO)O1 :: M
CCOC(=O)[C@H](CC(C)C)NC(=O)CCC1CC(OC(=O)NCc2ccc3c(c2)OCO3)CC2(CCCC(COC(=O)NCCCN3CCCC3=O)O2)O1 (some centres undefined) :: M

Using the reported composite z-score, which band applies to CCOC(=O)NN=C1C[C@@H](O)[C@@H](O)[C@@H]2[C@@H]3C(=O)N(C(C)(C)C)C(=O)[C@@H]3CC[C@H]12 ?
H

Using the reported composite z-score, which band applies to O=C1C=C[C@@H](O)[C@@H]2[C@@H]3C(=O)N(c4ccc(F)cc4F)C(=O)[C@@H]3CC[C@@H]12 ?
M

Using the reported composite z-score, which band applies to CO[C@H]1COC(=O)[C@H](C)NC(=O)CC=C[C@@H](C)[C@H](OC)COC(=O)[C@@H](OCc2ccccc2)C=C[C@@H]1C ?
L
